Give measured folding enthalpy for each item. Keep answers brief.
experimentalDetails: folding enthalpy; higher = less favourable; fluorescence melt of hairpins on a sequencing array, two-state fit
runParameters: sodium 0.088 M
The figure you give is taken to be in kcal/mol; do not add the unit.

[Q] Name the reported folding enthalpy value associated with the sequence CGATGACGGAAACGTTCG (((..(((....))))))
[A] -29.1

[Q] Also check GCAGCCCGAAAGGGTGC (((.(((....))))))
[A] -20.6

[Q] Please answer likewise for GAGGATGAAAATCCTC ((((((....))))))
[A] -37

[Q] Try GGCACAGGAAACCGTGCC (((((.(....).))))) next.
[A] -43.9

[Q] Input GTGGCCGAAAGGCCCCAC ((((((....)))..)))
[A] -5.99

[Q] Same question for GGAAAGAAATTTCC (((((....))))) please.
[A] -18.9

[Q] Now try GGGTTGGGAAACCAGCCC (((.(((....))).))) .
[A] -46.6

[Q] Let us now turn to GGTGTTGGAAACAATGCC ((..(((....)))..))
[A] -21

[Q] One more sequence: GATCTATTATTAGATC ((((((....))))))
[A] -34.1

[Q] Now consider GTATGCCGAAAGGCGTAC (((.(((....))).))) .
[A] -26.2

[Q] And the next one, GCTCAGCGAAAGCTTCGC ((..(((....)))..)) ?
[A] -12.6

[Q] Note, next up: GCGTGGCGAAAGCCCCGC (((.(((....))).)))
[A] -29.3

[Q] Subsequent entry: GATCATTTGATGATC ((((((...))))))
[A] -38.2

[Q] # iterate: GCGTCCTCACGC ((((....))))
[A] -24.3

[Q] Try this sequence next: GTGCGTCCGAAAGGACAC (((..(((....))))))
[A] -9.8

[Q] Queued: GGCTTCCGAAAGGAGCC (((.(((....))))))
[A] -37.1

[Q] Query GCACTCGAAAGAGGCTGC ((((((....)))..))) next
[A] -19.6

[Q] Next: GATCGGCGAAAGCCTATC (((.(((....))).)))
[A] -19.2

[Q] Now the same for GCCAACGAAAGTTAAGGC ((((((....)))..)))
[A] -25.6

[Q] Another sequence to look at: GCCTTCCGAAAGGAGGC (((.(((....))))))
[A] -29.8

[Q] Try the sequence GTAGGGGGAAACCCTTGC (.(.(((....))).).)
[A] -13.2

[Q] # iterate: GCCAGAACGAAAGTTGGC (((..(((....))))))
[A] -35.8

[Q] And GTCGCCGAAAGGCTGAC ((((((....))).))) ?
[A] -17.8

[Q] Entry GAAACCGAAAGGTTTTTC ((((((....)))..))) please
[A] -15.6

[Q] And for GAAACCGAAAGGTGTTTC ((((((....)))..))) ?
[A] -13.2

[Q] Can you check GGGTCCGAAAGGAGGCCC ((((((....)))..))) next?
[A] -18.7

[Q] Now the sequence GACCTCCGAAAGGAAGTC (((.(((....))).)))
[A] -26.1

[Q] What do we get for GAGATTGGAAACAATCTC (((((((....))))))) ?
[A] -42.2

[Q] Next up: GCGATGCGAAAGCGACGC (((..((....))..)))
[A] -29.5
